SUBJECT OF TEST: Matrilysin (Homo sapiens, UniProt P09237)
Sequence (P09237 whole entry): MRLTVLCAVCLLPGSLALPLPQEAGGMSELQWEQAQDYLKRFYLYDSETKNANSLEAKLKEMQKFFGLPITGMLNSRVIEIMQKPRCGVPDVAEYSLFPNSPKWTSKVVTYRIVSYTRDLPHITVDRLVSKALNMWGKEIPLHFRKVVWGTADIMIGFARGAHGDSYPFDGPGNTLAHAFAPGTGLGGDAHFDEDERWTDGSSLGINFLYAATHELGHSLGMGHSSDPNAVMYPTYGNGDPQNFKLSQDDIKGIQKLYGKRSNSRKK
TEST METHOD NOTES: Inhibition of recombinant human MMP7 using MOCAc-Pro-Leu-Gly-Leu-A2pr-(Dnp)-Ala-Arg-NH2 as substrate preincubated with compound for 15 mins followed by substrate addition and measured after 2 hrs by fluorescence based analysis
Numbered stars: 1 amine (or outer) side, 2 acyl side, 3 side chain; on linkers, the order of the positions; unused ones are H or OH. Square brackets hold non-standard residues; d marks the D form. Peptide text beside a SMILES is read from it. * marks the point of attachment. Benzenesulfonyl(4-Cl,3-CF3) = O=S(=O)(c1ccc(Cl)c(C(F)(F)F)c1)*; Ala(4-Pyridazinyl) = N[C@@H](Cc1ccnnc1)C(=O)O; γGlu = O=C(O)[C@H](CCC(=O)[*:2])N[*:1]; Phe(2-I) = N[C@@H](Cc1ccccc1I)C(=O)O; 2Pal = N[C@@H](Cc1ccccn1)C(=O)O; Tle = CC(C)(C)[C@H](N)C(=O)O; β3hP = O=C(O)C[C@@H]1CCCN1
Decide using IC50 alone. Strictly below 10 nM: fulfilled. Equal to or above 10 nM: not fulfilled.

INPUT: Consider the molecule CC(C)(C)[C@H](NC(=O)[C@H](Cc1ccccn1)NC(=O)CNC(=O)CC[C@H](NS(=O)(=O)c1ccc(Cl)c(C(F)(F)F)c1)C(=O)O)C(=O)N1CCC[C@H]1CC(N)=O ({Benzenesulfonyl(4-Cl,3-CF3)-γGlu}-G[2Pal][Tle][β3hP]-NH2) . Is its IC50 strictly less than 10 nM?
OUTPUT: fulfilled

INPUT: Hello, I'm reviewing records and need to know if IC50 of CC(C)(C)[C@H](NC(=O)[C@H](Cc1ccccc1)NC(=O)CNC(=O)CC[C@H](NS(=O)(=O)c1ccc(Cl)c(C(F)(F)F)c1)C(=O)O)C(=O)N1CCC[C@H]1CC(N)=O ({Benzenesulfonyl(4-Cl,3-CF3)-γGlu}-GF[Tle][β3hP]-NH2) is below 10 nM. Could you check?
OUTPUT: not fulfilled

INPUT: Hi there! Is IC50 for CC(C)(C)[C@H](NC(=O)[C@H](Cn1cc(C2CC2)nn1)NC(=O)CNC(=O)CC[C@H](NS(=O)(=O)c1ccc(Cl)c(C(F)(F)F)c1)C(=O)O)C(=O)N1CCC[C@H]1CC(N)=O below 10 nM, do you know?
OUTPUT: not fulfilled

INPUT: Problem: For the molecule CC(C)(C)[C@H](NC(=O)[C@H](Cc1ccccc1I)NC(=O)CNC(=O)CC[C@H](NS(=O)(=O)c1ccc(Cl)c(C(F)(F)F)c1)C(=O)O)C(=O)N1CCC[C@H]1CC(N)=O ({Benzenesulfonyl(4-Cl,3-CF3)-γGlu}-G[Phe(2-I)][Tle][β3hP]-NH2) , is IC50 under 10 nM?
OUTPUT: fulfilled

INPUT: is_below(IC50, 10 nM) for CC(C)(C)[C@H](NC(=O)[C@H](Cc1ccnnc1)NC(=O)CNC(=O)CC[C@H](NS(=O)(=O)c1ccc(Cl)c(C(F)(F)F)c1)C(=O)O)C(=O)N1CCC[C@H]1CC(N)=O ({Benzenesulfonyl(4-Cl,3-CF3)-γGlu}-G[Ala(4-Pyridazinyl)][Tle][β3hP]-NH2) ?
OUTPUT: fulfilled

INPUT: For this molecule, is IC50 lower than 10 nM? CC(C)(C)[C@H](NC(=O)[C@H](Cc1cccnn1)NC(=O)CNC(=O)CC[C@H](NS(=O)(=O)c1ccc(Cl)c(C(F)(F)F)c1)C(=O)O)C(=O)N1CCC[C@H]1CC(N)=O
OUTPUT: fulfilled

INPUT: Strictly below 10 nM in IC50? CC(C)(C)[C@H](NC(=O)[C@H](Cn1ccnn1)NC(=O)CNC(=O)CC[C@H](NS(=O)(=O)c1ccc(Cl)c(C(F)(F)F)c1)C(=O)O)C(=O)N1CCC[C@H]1CC(N)=O
OUTPUT: not fulfilled

Entry source: ChEMBL document CHEMBL5370641
